Form: system (OASS-B (Salmonella typhimurium)), quantity (pKd), values below.
pKd: −log10 of the molar value.

Recorded pKd, per entry:
molecule	observation.type	value.observed
CCn1ncc([N+](=O)[O-])c1C(=O)O	pKd	< 2.82
CCC1([N+](=O)[O-])CN(CC(=O)O)CN(CC(=O)O)C1	pKd	< 2.82
Cn1nnnc1Sc1ncccc1C(=O)O	pKd	3.09
O=C(O)CCN(CCC(=O)O)S(=O)(=O)c1ccccc1	pKd	< 2.82
CC1(C(=O)O)Cc2oncc2CC1C(=O)O (stereo not drawn)	pKd	< 2.82

The following molecules each have a reported value; give each one's pKd.
1. O=C(O)CSc1nsc(SCC(=O)O)n1
2. O=C(O)CNC(=O)CNC(=O)C1C2C=CC(C2)C1C(=O)O (stereo not drawn)
3. O=C(O)/C=C(/Cl)CC(=O)O
4. C[S+]([O-])CCC(NS(=O)(=O)c1ccccc1)C(=O)O (stereo not drawn)

// result
1. < 2.82
2. 4.30
3. 4.48
4. < 2.82
